molecular target: [^3 H]-spiroperidol binding (Rattus norvegicus, UniProt P61169); construct: from tissue; host or cells: brain striatum (own knowledge from the cited method); assay: Inhibition of [^3 H]-spiroperidol binding in a receptor assay; details: read-out: Inhibition of [^3 H]Spiroperidol Binding IC50
Sequence (P61169 whole entry): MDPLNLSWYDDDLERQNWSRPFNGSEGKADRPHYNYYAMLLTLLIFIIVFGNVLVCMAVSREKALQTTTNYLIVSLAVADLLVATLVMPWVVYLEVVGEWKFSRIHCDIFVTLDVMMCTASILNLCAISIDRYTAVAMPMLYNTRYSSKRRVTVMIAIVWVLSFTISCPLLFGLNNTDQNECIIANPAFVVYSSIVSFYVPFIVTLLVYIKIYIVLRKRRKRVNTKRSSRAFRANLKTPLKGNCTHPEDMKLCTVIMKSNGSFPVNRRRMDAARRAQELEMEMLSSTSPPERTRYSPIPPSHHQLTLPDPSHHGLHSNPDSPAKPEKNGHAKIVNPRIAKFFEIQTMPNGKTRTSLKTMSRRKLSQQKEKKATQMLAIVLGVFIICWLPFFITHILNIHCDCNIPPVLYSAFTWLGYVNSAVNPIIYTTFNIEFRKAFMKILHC
recorded.metric: IC50 (µM)
Express it in µM; write the number only.

Problem: Form field - read-out: IC50; system: [^3 H]-spiroperidol binding (Rattus norvegicus, UniProt P61169); submitted item: C1=C(c2ccccn2)CCN(CCCCc2ccncc2)C1
Solution: 0.448

Problem: Requested read-out IC50, target or system [^3 H]-spiroperidol binding (Rattus norvegicus, UniProt P61169), entry C1=C(c2ccccc2)CCN(CCCCc2cccnc2)C1
Solution: 0.17

Problem: Item: C1=C(c2cccs2)CCN(CCCCc2cccnc2)C1 Test system: [^3 H]-spiroperidol binding (Rattus norvegicus, UniProt P61169) Read-out: IC50 Value: ?
Solution: 1.29

Problem: Param readout = IC50; param system = [^3 H]-spiroperidol binding (Rattus norvegicus, UniProt P61169); param query = C1=C(c2c[nH]c3ccccc23)CCN(CCCCc2ccncc2)C1 ; response: value
Solution: 0.398

Problem: Record O=C(CCCN1CC=C(c2ccccc2)CC1)c1ccncc1 : what is its IC50 with [^3 H]-spiroperidol binding (Rattus norvegicus, UniProt P61169)?
Solution: 0.408
